- experimental-system: T1, human neonatal Fc receptor (hFcRn) (human, UniProt P55899 24-290; P61769 21-119)
- T1 construct: Biotinylated in the ELISA, Octet and yeast assays; also called human FcRn; huFcRn
- T1 sequence (P55899 24-290 limits assumed, chain 1 of 2): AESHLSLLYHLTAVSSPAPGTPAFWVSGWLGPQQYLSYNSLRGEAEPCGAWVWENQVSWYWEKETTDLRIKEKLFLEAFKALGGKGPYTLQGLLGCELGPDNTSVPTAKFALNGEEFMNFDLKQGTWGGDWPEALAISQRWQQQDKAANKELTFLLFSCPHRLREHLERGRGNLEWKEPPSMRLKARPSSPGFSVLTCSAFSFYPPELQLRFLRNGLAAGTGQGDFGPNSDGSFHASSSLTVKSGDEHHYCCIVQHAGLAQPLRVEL
- T1 sequence (P61769 21-119 limits assumed, chain 2 of 2): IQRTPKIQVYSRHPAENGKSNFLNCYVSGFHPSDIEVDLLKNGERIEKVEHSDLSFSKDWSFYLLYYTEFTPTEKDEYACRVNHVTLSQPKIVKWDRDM
- method-description: phage ELISA pH 7.4;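 further: higher score means stronger binding and above about 3 to 5 exceeds background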
Let's look at some binders and their measured ELISA score.
parameter: ELISA score

binder="variant Fc-fragment Fc-5-57 (other, soluble elsewhere) EPKSCDKTHTCPPCPAPELLGGPSVFLFPPKPKDTLMISRTPEVTCVVVDVSHEDPEVKFNWYVDGVEVHNAKTKPREEQYNSTYRVVSVLTVLHQDWLNGKEYKCKVSNKALPAPIEKTISKAKGQPREPQVYTLPPSRDELTKNQVSLTCLVKGFYPSDIAVEWESNGGCGKHWHQCGGGQPENNYKTTPPVLDSDGSFFLYSKLTVDKSRWQQGNVFSCSVMHEALHNHYTQKSLSLSPGK" parameter="ELISA score" measured_value=0.3
binder="L5 isolate with insertion SEQ ID NO: 402 (other) EPKSCDKTHTCPPCPAPELLGGPSVFLFPPKPKDTLMISRTPEVTCVVVDVSHEDPEVKFNWYVDGVEVHNAKTKPREEQYNSTYRVVSVLTVLHQDWLNGKEYKCKVSNKALPAPIEKTISKAKGQPREPQVYTLPPSRDELTKNQVSLTCLVKGFYPSDIAVEWESNGGCELQERWCGGGQPENNYKTTPPVLDSDGSFFLYSKLTVDKSRWQQGNVFSCSVMHEALHNHYTQKSLSLSPGK" parameter="ELISA score" measured_value=0.3
binder="L5 isolate with insertion SEQ ID NO: 464 (other) EPKSCDKTHTCPPCPAPELLGGPSVFLFPPKPKDTLMISRTPEVTCVVVDVSHEDPEVKFNWYVDGVEVHNAKTKPREEQYNSTYRVVSVLTVLHQDWLNGKEYKCKVSNKALPAPIEKTISKAKGQPREPQVYTLPPSRDELTKNQVSLTCLVKGFYPSDIAVEWESNGGCMMWKVNCGGGQPENNYKTTPPVLDSDGSFFLYSKLTVDKSRWQQGNVFSCSVMHEALHNHYTQKSLSLSPGK" parameter="ELISA score" measured_value=0.9
